These entries and their values trace back to patent US9834514B2.

- Tested on: MCF7 (human breast adenocarcinoma)
- PROTOCOL SUMMARY: Light-activated killing of cell lines (IC50 with/without light)
- Format: cell-based
- PROTOCOL CONDITIONS: no light, read-out: Compound IC50
PROPERTY: IC50

# COMPOUND, PROPERTY, READOUT VALUE
rows = [
    ("Clc1ccc(/C=C/c2[nH]c3ccccc3c2/C=C/c2ccc(Cl)cc2)cc1 [Compound 1]", "IC50", "17.8 µM"),
]

---

- Tested on: VRE
- PROTOCOL SUMMARY: MIC against VRE
- Assay type: cell-based, Enterococcus faecalis
- PROTOCOL CONDITIONS: Enterococcus, TABLE 23, read-out: VRE MIC
PROPERTY: MIC

# COMPOUND, READOUT VALUE
records = [
    ("Clc1ccc(Oc2c(-c3ccc(Cl)cc3)[nH]c3ccc(Cl)cc23)cc1 [Compound 11]", "20 µM"),
    ("Clc1ccc(/N=N/c2c[nH]c3ccccc23)cc1 [Compound 9]", "> 200 µM"),
    ("Cc1onc(-c2c(Cl)cccc2Cl)c1C(=O)N[C@@H]1C(=O)N2[C@@H]1SC(C)(C)[C@@H]2C(=O)O [Dicloxicillin, reference compound]", "4 µg/mL"),
    ("Clc1ccc(/C=C/c2[nH]c3ccccc3c2/C=C/c2ccc(Cl)cc2)cc1 [Compound 1]", "> 200 µM"),
]
